# test name: NCI Yeast Anticancer Drug Screen. Data for the cln2 rad14 strain (AID 165);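 note: 0% = growth equal to vehicle treated cultures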
# experimental setup: S. cerevisiae cln2 rad14 strain, at 50.0 µM
Compounds without any hit were thinned out: in the full panel of roughly 79,000, 15% have a hit. The source made the active and inactive calls. Cut-off read from the data, not from the text of the source: active = growth inhibition above about 70%; inactive = the rest.
Outcomes: class 1 (active), class 0 (inactive)

{"compound": "O=[N+]([O-])c1ccccc1N=Nc1c(O)[nH]c2cccc(C(F)(F)F)c12", "class assignment": "class 0"}
{"compound": "COc1ccc(C(c2cc3c(cc2O)OCO3)N2CCOCC2)c(OC)c1OC (stereo not given)", "class assignment": "class 0"}
{"compound": "S=C(S)NCCN1CCNCC1", "class assignment": "class 1"}
{"compound": "CCCCNc1ccc(-c2c(N)nc(N)nc2CC)cc1[N+](=O)[O-]", "class assignment": "class 0"}
{"compound": "N#Cc1ccc(OC(=O)Nc2c(Cl)cccc2Cl)cc1", "class assignment": "class 1"}
{"compound": "Cc1cc(NCCCN(C)C)c2cc3ccc4cccc5ccc(c2n1)c3c45", "class assignment": "class 0"}
{"compound": "CCCCCCCCCCCCCCCCNCCCCCCCC(=O)O", "class assignment": "class 1"}
{"compound": "OC(CCN1CCOCC1)c1ccc(Sc2ccccc2)cc1 (stereo not given)", "class assignment": "class 0"}
{"compound": "O=C(O)CCCCCCC(=O)CCl", "class assignment": "class 0"}
{"compound": "c1cc2c3c(c1)[I+]c1cccc(c1-3)[I+]2", "class assignment": "class 0"}
{"compound": "Nc1ccc2c(c1)C(=O)c1ccccc1-2", "class assignment": "class 0"}
{"compound": "Cc1ccc(S(=O)(=O)C(=S)Sc2ccccc2)cc1", "class assignment": "class 0"}
{"compound": "COc1ncc(Br)cc1C(=O)NCCc1ccc(S(=O)(=O)NC(=O)NC2CCCCC2)cc1", "class assignment": "class 1"}
{"compound": "Nc1ccc2nc(Nc3ccc(Cl)c(Cl)c3)cnc2c1", "class assignment": "class 1"}
{"compound": "NS(=O)(=O)c1ccc(N=Cc2c3ccccc3nc3cc(Cl)ccc23)cc1", "class assignment": "class 0"}
{"compound": "COc1cc(N=Nc2ccccc2)cc(/C=N/NC(N)=S)c1O", "class assignment": "class 1"}
{"compound": "CCCCCCCCCCCC(=O)NN", "class assignment": "class 1"}
{"compound": "O=C(c1ccc(O)cc1)c1ccccc1O", "class assignment": "class 0"}
{"compound": "OC1CN(C2CCCCC2)CC1C1(O)CCN(C2CCCCC2)C1 (stereo not given)", "class assignment": "class 0"}
{"compound": "Nc1nc(Cl)cc(NCC2(CO)CC(CCCc3ccccc3)C2)n1 (stereo not given)", "class assignment": "class 0"}
{"compound": "NNC(=O)C(=O)N/N=C(/CCC(=O)NCCc1ccccc1)CC(=O)c1ccccc1", "class assignment": "class 0"}
{"compound": "O=C1c2ccccc2C(=O)c2cc(O)ccc21", "class assignment": "class 0"}
{"compound": "N=Nc1c(OC(=O)Nc2cccc(Cl)c2)[nH]c2ccccc12", "class assignment": "class 1"}
{"compound": "CC(C)C1/C(=N/O)CC(c2ccccc2)N(N=O)C1c1ccccc1 (stereo not given)", "class assignment": "class 1"}
{"compound": "Cc1cc(C)c(S(=O)(=O)c2c(C)cc(C)cc2C)c(C)c1", "class assignment": "class 0"}
